# Tested on: A549/ATCC NSCLC
# assay: NCI-60 one-dose screen, 48 h
# experimental_setup: 10 µM unless noted
Compounds without any hit were thinned out: in the full panel of roughly 83,000, 20% have a hit. Calls of active or inactive are those of the source. The calls were made as follows: active = growth percent below 10; inactive = the rest.
Assign a class; possible classes are active, inactive

**Q:** Short answer needed: outcome of this test for CCOC(=O)c1cc(C(=O)c2cc(OC)c(OC)c(OC)c2)n2ccccc12 ?
**A:** inactive

**Q:** Short answer needed: outcome of this test for O=C(N=Nc1c(O)[nH]c2ccccc12)Nc1ccc(F)cc1 ?
**A:** inactive

**Q:** Short answer needed: outcome of this test for COc1ccc(-c2nc(-c3cn(C)c4ncccc34)cs2)cc1 ?
**A:** inactive

**Q:** Short answer needed: outcome of this test for CCCCCCCCCCCCCCCCCCOc1ccccc1CC(=O)NCC[N+]1(C)CCCCC1 ?
**A:** inactive

**Q:** Short answer needed: outcome of this test for Nn1c(=O)c(=O)[nH]c2c(cnn2-c2ccccc2)c1=O ?
**A:** inactive

**Q:** Short answer needed: outcome of this test for COc1cccc(CCNc2ncnc3c2ncn3Cc2nnc3c4ccccc4c(Cl)nn23)c1 ?
**A:** inactive

**Q:** Short answer needed: outcome of this test for C=C1C(=O)O[C@H]2[C@H]1CC/C(COC(=O)/C=C/C(=O)OC/C1=C/CC[C@@]3(C)O[C@H]3[C@H]3OC(=O)C(=C)[C@@H]3CC1)=C\CC[C@@]1(C)O[C@@H]21 ?
**A:** inactive

**Q:** Short answer needed: outcome of this test for CC1(C)OB(O)c2cc(-c3nc4ccc5[nH]ncc5c4c4c3CCCC4)ccc21 ?
**A:** inactive

Data credit: PubChem BioAssay (NCI)
